# experimental.system: T1, DLL3 (target in the Fab-Zap internalization assay) (UniProt Q9NYJ7 27-618, limits assumed)
# T1 sequence (looked up): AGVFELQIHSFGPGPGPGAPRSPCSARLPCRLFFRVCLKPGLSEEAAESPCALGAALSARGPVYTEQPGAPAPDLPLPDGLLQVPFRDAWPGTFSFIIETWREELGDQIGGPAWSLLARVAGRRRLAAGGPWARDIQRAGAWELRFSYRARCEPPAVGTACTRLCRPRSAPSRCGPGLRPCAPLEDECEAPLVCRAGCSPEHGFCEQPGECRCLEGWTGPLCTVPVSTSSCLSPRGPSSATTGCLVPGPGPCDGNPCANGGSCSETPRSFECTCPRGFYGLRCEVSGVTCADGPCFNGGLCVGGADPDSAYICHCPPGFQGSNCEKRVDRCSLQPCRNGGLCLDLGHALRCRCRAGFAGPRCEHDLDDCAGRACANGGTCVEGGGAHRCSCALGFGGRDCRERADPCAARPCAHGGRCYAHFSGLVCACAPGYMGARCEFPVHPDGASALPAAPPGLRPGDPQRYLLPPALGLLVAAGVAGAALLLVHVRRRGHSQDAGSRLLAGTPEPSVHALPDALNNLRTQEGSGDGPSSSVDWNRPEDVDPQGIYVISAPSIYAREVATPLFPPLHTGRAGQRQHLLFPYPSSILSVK
# assay.procedure: cell-based or functional assay
Record form. Attribute: Percent Max Killing (Fab-Zap internalization assay, 10 ug/ml). Fill in for each entry.
Use % as the unit, but write only the number.

Provide one value: measured Percent Max Killing (Fab-Zap internalization assay, 10 ug/ml) of B22 (antibody, V domains shown) VH: EVQLVESGGGLVQPGGSLRLSCAASGFTFNNFWMSWVRQAPGKGLEWVANIKQDGSEKYYVDSVKGRFTISRDNAKNSLYLQMNSLRAEDTAVYYCARESYFDLWGRGTLVTVSS VL: QAVVTQESALTTSPGETVTLTCRSSTGAVTTSNYANWVQEKPDHLFTGLIGGTNNRAPGVPARFSGSLIGDKAALTITGAQTEDEAIYFCALWYSNRWVFGGGTKLTVL
61.9

In one line, give reported Percent Max Killing (Fab-Zap internalization assay, 10 ug/ml) of the entry E23 (antibody, V domains shown) VH: QVQLVQSGAEVRKPGASVKVSCKASGYTFTGYYMHWVRQAPGQGLEWMGWINSYSGGANYAQKFQDRVTMTRDTSVSTASMELSRLRSDDTAVYYCARDGSGWYGSYFDFWGQGTLVTVSS VL: DIVMTQTPLSSPVTLGQPASISCRSSQSLVHSDGNTYLSWLQQRPGQPPRLLIYKISNRFSGVPDRFSGSGAGTDFTLKISRVEAEDVGFYYCIQTTQFPLTFGGGTKVEIK .
88.7

Kindly indicate its recorded Percent Max Killing (Fab-Zap internalization assay, 10 ug/ml). Item: O24 (antibody, V domains shown) VH: QVQLVQSGAEVKKPGASVKVSCKASGYTFTSYYLHWVRQAPGHGLEWMAIINPSGGSTSYAQKFLGRVTMTRDTSTNTVYMELSSLRSEDTAVYYCARERQQLDYYYFAMDVWGQGTTVTVSS VL: DIQMTQSPSSLSASVGDRVTITCRASQGISNYLAWFQQKPGKAPKSLIYAASSLQSGVPSKFSGSGSGTDFTLTISSLQPEDFATYYCQQYNSYPPTFGQGTKVEIK
80.3

Give reported Percent Max Killing (Fab-Zap internalization assay, 10 ug/ml) value for F9 (antibody, V domains shown) VH: QVQLVQSGAEVKKPGASVQVSCKASGYTFTSYYMHWVRQAPGQGLEWMGIINPSGGSTSYAQKFQGRVTMTRDTSTSTVYMELSSLRSEDTAVYYCARQGGAQWLVLAFDIWGQGTMVTVSS VL: EIVLTQSPGTLSLSPGERATLSCRASQSVSSYLAWYQQKPGQPPRLLIYGASSRATGIPDRFSGGGSGTDFTLTISRLEPEDFAVYYCQQYDSSPYTFGQGTKLEIK
70

Using known records, supply Percent Max Killing (Fab-Zap internalization assay, 10 ug/ml) for E9 (antibody, V domains shown) VH: QVQLVQSGAEVKKPGASVKVSCKASGYTFTSYYMHWVRQAPGQGLEWMGVINSSGGSTSYAQKFQGRVTMTRDTSTSTVYMDLSSLRSEDTAVYYCARGYCTNGVYYDEDFDYWGQGTLVTVSS VL: DIQMTQSPSSLSASVGDRVTITCRASQGISHYLAWFQQKPGKAPTSLIYAASSLQSGVPSKFSGSGSGTDFTLTISSLQPEDFATYYCQQYNSYPLTFGGGTKVEIK
61.4

Where do the numbers come from? From patent US20240368269A1.
